- System: human FPTase (Homo sapiens, UniProt P49354+P49356)
- Assay Notes: In vitro inhibition of ras farnesyl transferase (FPTase transferase assay)
- Condition Set: recombinant FPTase; 650 nM Ras-CVLS, 100 nM farnesyl diphosphate; 30° C.; read-out: IC50, inhibitory activity against human FPTase
pIC50: −log10 of the molar value. Where a name gives a salt, the structure may show the parent alone.
Measurement Type: pIC50

### Prompt May I ask what pIC50 has been recorded for N#Cc1ccc2cc1Oc1ccc3ccc(=O)n(c3c1)-c1ccc(cn1)CCc1cncn1C2 [Example 1, dihydrochloride] ?
### Response ≥ 4.52
